- System: SNB-19 CNS
- method-summary: NCI-60 one-dose screen, 48 h
- protocol-conditions: 10 µM unless noted
About 83,000 compounds went through this panel and 20% of them were active in at least one assay; those are over-represented in the sample as a whole. Active and inactive are the calls of the source. Rule for the calls: active = growth percent below 10; inactive = the rest.
Write down the outcome that applies. Available outcomes: 1 (active), 0 (inactive)

Example cases with answers are listed next.
molecule	group
CN1CCN(Cc2ccc(NC(=O)c3ccc(C(C)(C)C)c(C#Cc4cnc5cccnn45)c3)cc2C(F)(F)F)CC1	1
NCCCNc1nc2ccccc2c2c(=O)c3cc(OC(F)(F)F)ccc3sc12	1
CCOC(=O)/C(C#N)=C\Nc1ccc2ncnc(Nc3ccc(Cl)cc3Cl)c2c1	0

Problem: I would be grateful if you could indicate the recorded call for Cc1ccc(/C=C2\Oc3ccc(O)c(O)c3C2=O)cc1 .
Result: 0
